These data points were gathered from PubChem BioAssay AID588689.

Reported inhibition values are given for each entry in this list.
# test.system: Genome polyprotein (Dengue virus type 2 (strain 16681-PDK53))
# assay.details: flavivirus cap methylation enzyme inhibition – biochemical, confirmation dose response, primary screen (AID 588689)
# measurement.conditions: Dengue-2 NS5 methyltransferase capping enzyme assay, at 25 µM, active compounds read high
Hit rate of the full screen: of about 340,000 compounds, about 1,000 (0.29%) were called active. Not all results are given here. Potency and affinity values are given separately.
Write it as a number; the unit % goes unstated.

compound	inhibition, %
CCOc1ccc(Cl)cc1/C=C1/C(=O)ON=C1C	20.2
NNc1nc(-c2ccccc2)c2cc(Cl)ccc2n1	4.62

Field: next compound
Query :: Please indicate inhibition recorded for COc1cc(/C=C2/C(=O)ON=C2c2ccccc2)ccc1O
Result :: -8.45

----------
Reported inhibition is given for each of the following compounds.
# test.system: Genome polyprotein (Dengue virus type 2 (strain 16681-PDK53))
# assay.details: flavivirus cap methylation enzyme inhibition – biochemical, confirmation dose response, primary screen (AID 588689)
# measurement.conditions: Dengue-2 NS5 methyltransferase capping enzyme assay, at 25 µM, active compounds read high
In all, about 340,000 compounds went through this assay and about 1,000 (0.29%) were called active. The list is a sample of the results. Entries with a potency or affinity are not part of this list.
Write the answer as a number in %, unit excluded.

compound	inhibition (%)
COc1ccc(C(=O)OCCNC(=O)c2ccncc2)cc1OC	-5.77

Query :: Using the record for O=C1Nc2ccccc2/C1=C/c1ccccc1Cl , state its measured inhibition.
Result :: -2.65

Query :: Could you please provide reported inhibition for N#Cc1c(N)sc2c1CCCCCC2 ? Thanks!
Result :: -3.42

Query :: Tell me its inhibition given COc1ccccc1OCCCCNC(C)(C)C as the entry.
Result :: -1.39

Query :: Supply inhibition value. Item: CC(C)(C)OC(=O)C[C@@H]1C/C=C\C[C@@H](CC(=O)N(CCO)Cc2ccccc2)C(=O)N2CCC[C@H]2COC1=O
Result :: -2.31

Query :: Give the value of inhibition reported for the following: COC(=O)c1cc(C)c(C)cc1NC1OC(CO)C(O)C1O (stereo not drawn)
Result :: -9.68

Query :: Please report the measured inhibition for O=C1NC(=O)/C(=C/c2ccccc2Cl)N1
Result :: -5.96

Query :: Supply measured inhibition of CC(=O)NC(CC(=O)OCC(=O)c1ccc(NC(=O)CC(C)C)cc1)c1ccccc1 (stereo not drawn) in your reply.
Result :: -7.74

Query :: Supply inhibition value. Item: CCOC(=O)c1c(NCc2ccc3c(c2)OCO3)c2ccccc2[nH]c1=O
Result :: -4.02

Query :: Give me measured inhibition, please, for this compound: Cc1cccc(N=Nc2cnc(N)s2)c1
Result :: 0.79

----------
# test.system: Genome polyprotein (Dengue virus type 2 (strain 16681-PDK53)) (UniProt P29991)
# Sequence (P29991 whole entry, looked up): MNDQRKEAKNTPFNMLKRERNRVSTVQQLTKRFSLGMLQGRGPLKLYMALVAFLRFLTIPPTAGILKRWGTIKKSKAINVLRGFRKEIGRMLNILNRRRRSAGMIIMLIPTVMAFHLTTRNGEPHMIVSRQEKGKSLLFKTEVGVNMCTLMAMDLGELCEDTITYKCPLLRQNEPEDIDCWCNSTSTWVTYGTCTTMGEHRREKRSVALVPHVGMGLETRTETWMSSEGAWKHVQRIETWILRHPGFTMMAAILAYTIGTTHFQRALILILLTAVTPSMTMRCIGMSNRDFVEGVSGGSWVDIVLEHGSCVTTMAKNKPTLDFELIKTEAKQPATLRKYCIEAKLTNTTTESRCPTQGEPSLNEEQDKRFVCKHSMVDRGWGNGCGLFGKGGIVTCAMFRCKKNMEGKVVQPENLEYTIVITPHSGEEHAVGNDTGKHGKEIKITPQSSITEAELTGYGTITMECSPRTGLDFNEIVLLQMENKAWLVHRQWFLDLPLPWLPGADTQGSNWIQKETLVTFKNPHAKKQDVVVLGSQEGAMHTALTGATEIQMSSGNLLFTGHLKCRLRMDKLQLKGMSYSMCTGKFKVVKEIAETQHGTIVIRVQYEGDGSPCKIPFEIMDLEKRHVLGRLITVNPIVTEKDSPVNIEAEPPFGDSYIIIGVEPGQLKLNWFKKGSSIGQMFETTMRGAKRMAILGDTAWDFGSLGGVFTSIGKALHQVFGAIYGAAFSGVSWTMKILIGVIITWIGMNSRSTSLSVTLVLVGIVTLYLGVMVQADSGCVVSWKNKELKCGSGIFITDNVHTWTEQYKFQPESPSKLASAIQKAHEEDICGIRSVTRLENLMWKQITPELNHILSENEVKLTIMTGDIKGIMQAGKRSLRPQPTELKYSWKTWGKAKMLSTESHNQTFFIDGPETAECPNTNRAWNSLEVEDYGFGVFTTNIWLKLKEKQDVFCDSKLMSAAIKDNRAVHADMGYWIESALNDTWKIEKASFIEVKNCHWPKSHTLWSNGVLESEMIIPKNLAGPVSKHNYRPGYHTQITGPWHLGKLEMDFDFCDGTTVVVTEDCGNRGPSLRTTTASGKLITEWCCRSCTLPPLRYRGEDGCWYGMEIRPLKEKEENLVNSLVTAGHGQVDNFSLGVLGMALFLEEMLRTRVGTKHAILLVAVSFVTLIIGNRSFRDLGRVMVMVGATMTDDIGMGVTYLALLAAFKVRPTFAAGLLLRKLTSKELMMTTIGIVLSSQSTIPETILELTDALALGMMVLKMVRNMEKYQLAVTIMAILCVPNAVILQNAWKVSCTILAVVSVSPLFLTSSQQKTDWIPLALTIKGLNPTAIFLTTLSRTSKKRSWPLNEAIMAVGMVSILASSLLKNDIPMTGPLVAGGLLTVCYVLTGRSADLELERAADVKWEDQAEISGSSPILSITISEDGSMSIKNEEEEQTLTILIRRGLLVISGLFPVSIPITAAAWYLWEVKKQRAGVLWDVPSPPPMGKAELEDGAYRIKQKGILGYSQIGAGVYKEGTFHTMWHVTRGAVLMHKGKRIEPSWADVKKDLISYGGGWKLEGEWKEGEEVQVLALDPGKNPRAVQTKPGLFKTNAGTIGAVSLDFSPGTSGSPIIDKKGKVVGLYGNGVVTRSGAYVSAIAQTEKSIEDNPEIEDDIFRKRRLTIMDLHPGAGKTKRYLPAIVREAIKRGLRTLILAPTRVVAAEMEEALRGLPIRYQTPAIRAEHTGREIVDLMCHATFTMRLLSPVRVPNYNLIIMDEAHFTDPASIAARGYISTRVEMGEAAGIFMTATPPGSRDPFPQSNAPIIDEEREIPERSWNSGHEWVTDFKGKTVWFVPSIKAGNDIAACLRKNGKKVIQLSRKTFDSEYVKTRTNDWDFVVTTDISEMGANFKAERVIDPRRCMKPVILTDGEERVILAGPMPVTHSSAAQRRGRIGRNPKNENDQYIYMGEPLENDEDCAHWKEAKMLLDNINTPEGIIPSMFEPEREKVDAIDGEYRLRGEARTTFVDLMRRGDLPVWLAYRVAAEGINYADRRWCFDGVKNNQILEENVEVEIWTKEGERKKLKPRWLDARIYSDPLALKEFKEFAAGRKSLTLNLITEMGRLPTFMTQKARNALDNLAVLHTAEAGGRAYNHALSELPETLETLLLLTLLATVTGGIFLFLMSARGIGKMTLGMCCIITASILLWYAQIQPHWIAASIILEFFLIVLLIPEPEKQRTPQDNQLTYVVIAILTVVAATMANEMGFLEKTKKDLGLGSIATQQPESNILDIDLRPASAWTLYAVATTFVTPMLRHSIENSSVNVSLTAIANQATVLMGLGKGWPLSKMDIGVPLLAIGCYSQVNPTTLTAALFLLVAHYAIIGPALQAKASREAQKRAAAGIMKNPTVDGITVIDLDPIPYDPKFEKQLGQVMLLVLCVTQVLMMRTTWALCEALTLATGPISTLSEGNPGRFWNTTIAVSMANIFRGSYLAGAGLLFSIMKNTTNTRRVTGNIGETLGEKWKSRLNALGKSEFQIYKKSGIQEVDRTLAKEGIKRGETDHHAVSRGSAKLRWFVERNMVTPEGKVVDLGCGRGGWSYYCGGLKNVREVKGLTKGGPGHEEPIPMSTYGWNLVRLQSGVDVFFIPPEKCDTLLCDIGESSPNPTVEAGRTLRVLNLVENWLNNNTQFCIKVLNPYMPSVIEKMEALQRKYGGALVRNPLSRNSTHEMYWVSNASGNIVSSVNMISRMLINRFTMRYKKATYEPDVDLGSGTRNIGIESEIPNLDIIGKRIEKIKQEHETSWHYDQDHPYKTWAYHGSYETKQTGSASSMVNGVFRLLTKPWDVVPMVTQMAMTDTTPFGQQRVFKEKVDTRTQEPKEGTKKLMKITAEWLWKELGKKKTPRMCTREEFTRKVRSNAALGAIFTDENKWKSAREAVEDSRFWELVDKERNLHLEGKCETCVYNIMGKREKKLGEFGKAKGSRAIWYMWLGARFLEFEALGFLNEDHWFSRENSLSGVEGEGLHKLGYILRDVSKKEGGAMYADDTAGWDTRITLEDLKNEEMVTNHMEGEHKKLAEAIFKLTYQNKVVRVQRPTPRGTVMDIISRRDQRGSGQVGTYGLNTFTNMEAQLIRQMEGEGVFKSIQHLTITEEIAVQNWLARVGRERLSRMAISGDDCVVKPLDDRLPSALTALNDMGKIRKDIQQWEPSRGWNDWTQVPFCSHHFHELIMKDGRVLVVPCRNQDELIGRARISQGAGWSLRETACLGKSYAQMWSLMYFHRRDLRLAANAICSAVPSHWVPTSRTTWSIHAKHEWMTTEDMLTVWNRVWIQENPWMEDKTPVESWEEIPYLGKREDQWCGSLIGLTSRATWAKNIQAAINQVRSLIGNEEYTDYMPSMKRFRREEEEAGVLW
# assay.details: flavivirus cap methylation enzyme inhibition – biochemical, confirmation dose response, primary screen (AID 588689)
# measurement.conditions: Dengue-2 NS5 methyltransferase capping enzyme assay, at 25 µM, active compounds read high
In all, about 340,000 compounds went through this assay and about 1,000 (0.29%) were called active. These entries were drawn from the full list. Entries with a potency or affinity are not part of this list.
Catalogue of inhibition readings, one per entry.
All answers are understood in %, so give the number only.

compound	units.text	inhibition
CC(=O)Oc1ccc(N(C(C)=O)S(=O)(=O)c2ccc(C)cc2)c2ccccc12	%	-8.55
Cc1ccc(C=C2C(=O)c3ccccc3C2=O)o1	%	1.92
Cc1cc(C(=O)N/N=C2/CC(C)CC(C)(C)C2)c(C)o1 (stereo not given)	%	-5.92
O=C(O)c1ccc2c(c1)C(=O)N(N1C(=O)c3ccccc3C1=O)C2=O	%	5.13
Cc1oc(-c2ccccc2Cl)nc1CS(=O)CC(=O)NCCCN1CC(C)CC(C)C1 (stereo not given)	%	2.33
Cc1ccc(C(=O)O)cc1-c1ccc(C=C2C(=O)c3ccccc3C2=O)o1	%	-0.73
COC(CNC(=O)c1cnn2c(C)c(Cc3ccccc3)c(C)nc12)OC	%	-1.46
Cc1cc(C(=O)O)ccc1-n1c(C)cc(C=C2C(=O)c3ccccc3C2=O)c1C	%	-19.9
CC(=O)Oc1ccc(N(C(C)=O)S(=O)(=O)c2ccccc2)c2ccccc12	%	6.04

Now for the compound whose inhibition we want.
Query :: Report its inhibition with Genome polyprotein (Dengue virus type 2 (strain 16681-PDK53)) (UniProt P29991) as the test system: COc1cccc(NC(=O)Cc2nnc(SCC(=O)NC3=NCCS3)n2C)c1
Result :: -1.78

----------
We begin with a simple list: items and their reported inhibition.
# test.system: Genome polyprotein (Dengue virus type 2 (strain 16681-PDK53)) (UniProt P29991)
# assay.details: flavivirus cap methylation enzyme inhibition – biochemical, confirmation dose response, primary screen (AID 588689)
# measurement.conditions: Dengue-2 NS5 methyltransferase capping enzyme assay, at 25 µM, active compounds read high
Among all 340,000 compounds or so, about 1,000 (0.29%) were called active. Only a sample is shown. Entries with a potency or affinity are not part of this list.
# number only, unit % dropped from output

Query :: # return recorded inhibition for input COc1ccc(-c2c(-c3cc(OC)cc(OC)c3)n(C)c3ccc(-c4ccc(OC)cc4F)cc23)cc1
Result :: -1.04

Query :: Return value of inhibition for input CCCCC1CCC(C(=O)NCC(c2ccco2)N2CCOCC2)CC1 (stereo unspecified) , no commentary.
Result :: -3.1

Query :: Note inhibition for the compound shown: COCCN(C(=O)COC(=O)CCSc1ccc(F)cc1)c1c(N)n(Cc2ccccc2)c(=O)[nH]c1=O
Result :: -5.13

Query :: For the compound CCCCNC(C(=O)Nc1ccc([N+](=O)[O-])cc1Br)c1ccccc1 (stereo unspecified) , give its reported inhibition.
Result :: 1.47

Query :: Please indicate inhibition recorded for Cc1n[nH]c(C)c1CCCCOc1ccccc1[N+](=O)[O-]
Result :: -3.29

Query :: // fetch inhibition given entry Oc1c(CN2CCOCC2)ccc(CN2CCOCC2)c1O
Result :: 25.3

Query :: Return inhibition (reported value) for this compound: Cc1sc2ncnc(N3CCC(C(=O)Nc4sc5c(c4C(N)=O)CCC(C)C5)CC3)c2c1C (stereo unspecified)
Result :: 0

Query :: Give a short answer stating reported inhibition for Oc1c(CN2CCOCC2)cc(CN2CCOCC2)c(O)c1CN1CCOCC1 .
Result :: 20.2

Query :: Note down inhibition recorded for CCCCn1nc(NS(=O)(=O)c2cccc3nonc23)c2cc3cccc(C)c3nc21
Result :: 27.8

Query :: # return recorded inhibition for entry Nn1cnnc1N/N=C/c1ccc(F)cc1
Result :: 0.39

Query :: Annotate the compound CSc1ccc(S(=O)(=O)Nc2ccc3c(c2)NC(=O)CC3)cc1 with its measured inhibition.
Result :: 0

----------
# test.system: Genome polyprotein (Dengue virus type 2 (strain 16681-PDK53)) (UniProt P29991)
# assay.details: flavivirus cap methylation enzyme inhibition – biochemical, confirmation dose response, primary screen (AID 588689)
# measurement.conditions: Dengue-2 NS5 methyltransferase capping enzyme assay, at 25 µM, active compounds read high
The campaign covered roughly 340,000 compounds. About 1,000 (0.29%) were called active. These entries were drawn from the full list. Potency and affinity values are given separately.
measurement.name: inhibition (%)
// units = %; emit number, no label

compound	units.text	inhibition
CNCc1ccccc1Sc1cc(O)ccc1O	%	-2.55
CCOC(=O)C1(C)/C(=N/Nc2ccc(Cl)cc2)C(=O)C(=O)N1c1ccccc1 (stereo not given)	%	3.28
Cc1ccnc(N/C=C(/NC(=O)c2ccccc2)C(=O)N/N=C\c2ccc(Cl)cc2)n1	%	-3.09
CC(C)(C)C(=O)CN1C(=O)NC2(CCc3ccccc32)C1=O (stereo not given)	%	-0.65
CC(C)=C1C2CCC1C(C(=O)Nc1sc(C)c(-c3ccc(C(C)C)cc3)c1C(N)=O)C2C(=O)O (stereo not given)	%	2.89

From here, focus on the item given below.
Query :: Report inhibition for Cc1sc(NC(=O)C2CCCCC2C(=O)O)c(C(N)=O)c1-c1ccccc1 (stereo not given)
Result :: -2.08

----------
# test.system: Genome polyprotein (Dengue virus type 2 (strain 16681-PDK53)) (UniProt P29991)
# assay.details: flavivirus cap methylation enzyme inhibition – biochemical, confirmation dose response, primary screen (AID 588689)
# measurement.conditions: Dengue-2 NS5 methyltransferase capping enzyme assay, at 25 µM, active compounds read high
The campaign covered roughly 340,000 compounds. About 1,000 (0.29%) were called active. The list is a sample of the results. Results with a measured potency or affinity are listed apart.
measurement.name: inhibition (%)
Quick reminder: number only, in %, skip the unit.

Query :: For Genome polyprotein (Dengue virus type 2 (strain 16681-PDK53)) (UniProt P29991), give the measured inhibition of the entry Cc1c(C(=O)OCC(=O)NC2CC2)oc2ccc(Br)cc12
Result :: 4.33

Query :: Lab note: Genome polyprotein (Dengue virus type 2 (strain 16681-PDK53)) (UniProt P29991) assay, enter inhibition for COc1ccc(/C=C/C=C2\NC(=S)NC2=O)cc1 here
Result :: -2.15

Query :: For Genome polyprotein (Dengue virus type 2 (strain 16681-PDK53)) (UniProt P29991), give the measured inhibition of the entry CC(/C=C1\NC(=S)NC1=O)=C\c1ccccc1
Result :: -7.18

Query :: State the measured inhibition (Genome polyprotein (Dengue virus type 2 (strain 16681-PDK53)) (UniProt P29991)) of NC(=O)Cn1c(O)c(N=NC(=O)CNC(=O)/C=C/c2ccccc2)c2ccccc21
Result :: 3.88

Query :: Provide inhibition, system Genome polyprotein (Dengue virus type 2 (strain 16681-PDK53)) (UniProt P29991), entry COc1cccc(/C=C2\SC(=S)N(c3cccnc3)C2=O)c1OC
Result :: 6.89

Query :: Retrieve inhibition on Genome polyprotein (Dengue virus type 2 (strain 16681-PDK53)) (UniProt P29991); query CCOc1ccc(/C=C2/SC(=S)N(C(C(=O)O)c3ccccc3)C2=O)cc1OCC (stereo unspecified)
Result :: 22.1
